Recorded GLP EC50 values for a group of binders are listed next.
# Tested on: T1, full-length human GLP-1R (GenBank NM_002062) with an N-terminal FLAG tag on HEK-293T cells (human), P43220
# T1 chain: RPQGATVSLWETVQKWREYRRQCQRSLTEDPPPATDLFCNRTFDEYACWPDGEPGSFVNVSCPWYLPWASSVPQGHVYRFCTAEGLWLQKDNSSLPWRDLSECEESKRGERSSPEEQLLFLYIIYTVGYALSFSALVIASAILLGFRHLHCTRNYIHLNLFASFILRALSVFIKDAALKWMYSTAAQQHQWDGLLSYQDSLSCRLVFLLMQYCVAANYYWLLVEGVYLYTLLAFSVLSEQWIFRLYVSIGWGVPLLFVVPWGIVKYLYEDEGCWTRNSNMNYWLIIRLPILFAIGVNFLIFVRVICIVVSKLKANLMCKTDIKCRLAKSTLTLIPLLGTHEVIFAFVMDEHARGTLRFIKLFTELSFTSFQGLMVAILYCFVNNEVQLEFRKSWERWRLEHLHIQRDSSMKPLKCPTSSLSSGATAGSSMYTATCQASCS
# Assay comment: cell-based or functional assay
Numbered stars: 1 amine (or outer) side, 2 acyl side, 3 side chain; on linkers, the order of the positions; unused ones are H or OH. Square brackets hold non-standard residues; d marks the D form. Primed or numbered codes have the meaning given here. Side chains are listed from the residue outwards. Ends that are not written are not given here. * marks the point of attachment. C20 diacid = O=C(O)CCCCCCCCCCCCCCCCCCC(=O)*; C18 diacid = O=C(O)CCCCCCCCCCCCCCCCC(=O)*; C16 diacid = O=C(O)CCCCCCCCCCCCCCC(=O)*; γGlu = O=C(O)[C@H](CCC(=O)[*:2])N[*:1]; Iva = CC[C@](C)(N)C(=O)O; PEG3′ = not defined here; Aib = CC(C)(N)C(=O)O

[
  {
    "Binder": "Y[Aib]EGTFISDYSIALDR[Aib]HQ[Aib]NFVNW[Iva]LAQRPSSGAK([PEG3′-PEG3′-γGlu-C20 diacid])PPS (ends and bridges not checked) [Compound No. 502]",
    "GLP EC50": "> 1000 nM"
  },
  {
    "Binder": "Y[Aib]EGTFISDYSIALDR[Aib]HQ[Aib]NFVNW[Iva]LAQRPSSGAPPK([PEG3′-γGlu-C20 diacid])S (ends and bridges not checked) [Compound No. 532]",
    "GLP EC50": "> 1000 nM"
  }
]

Consider the binder shown here: Y[Aib]EGTFISDYSIALDR[Aib]HQ[Aib]NFVNW[Iva]LAQRPSSGAPPPK([PEG3′-PEG3′-C20 diacid])R (ends and bridges not checked) [Compound No 941] What is its recorded GLP EC50?
1000 nM

Same again, this time with Y[Aib]EGTFISDYSIALDR[Aib]HQ[Aib]NFVNW[Iva]LAQRPSSGAPPPK([PEG3′-PEG3′-C16 diacid])R (ends and bridges not checked) [Compound No 939]
1000 nM

Another binder to check: Y[Aib]EGTFISDYSIALDR[Aib]HQ[Aib]NFVNW[Iva]LAQRPSSK([Gly-Gly-Gly-Gly-Gly-γGlu-C16 diacid])APPPS (ends and bridges not checked) [Compound No. 447]
> 1000 nM

Now the same for Y[Aib]EGTFISDYSIALDR[Aib]HQ[Aib]NFVNW[Iva]LAQRPSSGAPPK([Gly-Gly-Gly-Gly-Gly-γGlu-C16 diacid])S (ends and bridges not checked) [Compound No. 459]
> 1000 nM

What would you report for Y[Aib]EGTFISDYSIALDR[Aib]HQ[Aib]NFVNW[Iva]LAQRK([PEG3′-PEG3′-γGlu-C16 diacid])SSGAPPPS (ends and bridges not checked) [Compound No. 485] ?
> 1000 nM

Moving on to the next binder: Y[Aib]EGTFISDYSIALDR[Aib]HQ[Aib]NFVNW[Iva]LAQRPSSGAK([γGlu-γGlu-C18 diacid])PPS (ends and bridges not checked) [Compound No. 552]
> 1000 nM
